# Assayed Target: T1, recombinant human CD63 extracellular loop 2 expressed with a C-terminal human Fc tag (human)
# T1 construct: also called hCD63 EC loop 2-hFc; human CD63 EC loop 2-Fc
# T1 sequence (chain, as listed by the source limits assumed): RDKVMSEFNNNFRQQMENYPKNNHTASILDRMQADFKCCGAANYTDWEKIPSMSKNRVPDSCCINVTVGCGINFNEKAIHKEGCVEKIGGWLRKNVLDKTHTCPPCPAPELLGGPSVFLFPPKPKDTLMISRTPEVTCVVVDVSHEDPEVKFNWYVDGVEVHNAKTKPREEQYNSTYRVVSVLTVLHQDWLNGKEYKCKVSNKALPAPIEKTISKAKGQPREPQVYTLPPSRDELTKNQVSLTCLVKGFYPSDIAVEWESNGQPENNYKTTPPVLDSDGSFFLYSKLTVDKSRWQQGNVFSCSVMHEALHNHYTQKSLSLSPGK
# Run Description: SPR Biacore, mAb captured, 25C
Measured Property: pKd
pKd is defined as minus the log10 of a concentration measured in mol/L.

Binder	Measured Property	Quantitative Readout
H1M12388N (antibody, V domains shown) VH: QVQLEESGGGVVKAGGSLRLSCAASGFTFSDYYINWIRQAPGKGLEWVSYINNGGYTIYYADSVKGRFTMSRDNAKNSVYLQMNGLRAEDTAFYYCVRDPRSYYGFDYWGQGTLVTVSS VL: DIQMTQSPSSLSASVGDRVTITCRASQSISRFLHWYQQKPGKAPKLLIYGASSLQSGVPSRFSGSGSGTDFTLTISTLQPEDFATYYCQQSYSTPPITFGQGTRLEIK	pKd	9.62
H2M12385N (antibody, V domains shown, also called H2bM12385N; H2bM12385) VH: QVQLVESGGGLVKPGGSLRLSCAASGFTFTDYFMNWIRQAPGKGLEWVSYISNSGAIKYQADSVKGRFTISRDNAKNSLYLQMNSLRADDTAVYYCVRDPRSYYGFDYWGQGTLVTVSS VL: DIQMTQSPSSLSASVGDRVTITCRASQSIRNFLNWYQQKPGKAPRLLIYAASSLQSGVPSRFSGGGSGTDFTLTISSLQPEDFATYYCQQSYSNPPITFGQGTRLEIK	pKd	8.78
H2M12387N (antibody, V domains shown, also called H2aM12387N) VH: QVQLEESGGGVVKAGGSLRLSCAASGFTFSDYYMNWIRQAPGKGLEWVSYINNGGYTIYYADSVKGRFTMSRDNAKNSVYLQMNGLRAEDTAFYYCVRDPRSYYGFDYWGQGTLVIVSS VL: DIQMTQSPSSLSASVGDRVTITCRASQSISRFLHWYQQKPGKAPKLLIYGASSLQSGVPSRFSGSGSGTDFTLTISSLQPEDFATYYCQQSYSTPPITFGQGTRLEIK	pKd	9.89
H1M12362N (antibody, V domains shown) VH: QVQLVESGGGLVKPGGSLRLSCAASGFIFSDYYINWIRQAPGKGLEWVSYTSSSGSTTYYEDSVKGRFTMSRDNARNLVYLQMNSLRAEDTAAYYCVRDLRYNDGLDVWGQGTTVTVSS VL: DILLTQSPSSLSASVGDRVTITCRASQSIRTYLNWYQQKPGRAPKLLVYAASSLQSGVPSRFSGSGSGTDFTLTISSLQPEDFATYFCQQSYDNPPITFGQGTRLAIK	pKd	9.08
H1M12451N (antibody, V domains shown) VH: QVQLQESGPGLMKPSETLSLTCTVSGGSFSSYYWNWIRQSPGKGLEWIGYIRYSGDTNYKPSLKSRFTISIDTSKNLFSLRLKSVTAADTAVYYCARMGLGSDAFDIWGQGTMVTVSS VL: EIVLTQSPGTLSLSPGERATLSCRASQSVNNNYLAWYQQKPGQAPRLLIYGVFNRATNIPDRFSGSGSGTDFTLTISRLEPEDFAVYYCQQYGSSPWTFGQGTKVEIK	pKd	9.15
H2M13022N (antibody, V domains shown, also called H2bM13022N) VH: QVQLVESGGGLVQPGGSLRLSCAASGFIFGDYYINWIRQAPGKGLQWVSYTSSSGSTTYYEDSVKGRFTMSRDNAKNLVYLQMNSLRAEDTAAYYCVRDLRYNDGLDVWGQGTTVIVSS VL: DILLTQSPSSLSAFVGDRVTITCRASQNIRTYLNWYQQKPGRAPKLLVYAASTLQSGVPSRFSGSGSGTDFTLTISSLQPEDFASYFCQQSYDNPPITFGQGTRLAIK	pKd	9.21
H2M12454N (antibody, V domains shown, also called H2bM12454N) VH: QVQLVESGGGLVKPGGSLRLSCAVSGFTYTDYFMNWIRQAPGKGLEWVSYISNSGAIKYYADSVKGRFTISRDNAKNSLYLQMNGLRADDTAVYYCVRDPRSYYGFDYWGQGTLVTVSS VL: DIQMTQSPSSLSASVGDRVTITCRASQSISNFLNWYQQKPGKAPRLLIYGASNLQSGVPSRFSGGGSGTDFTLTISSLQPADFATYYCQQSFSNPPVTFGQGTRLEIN	pKd	9.28
H2M12452N (antibody, V domains shown, also called H2aM12452N) VH: QVQLQEAGPGLVKPSETLSLTCIVSGGSISGFYWNWIRQPPGKGLEWIGYFLYSGTIDYNPSLKSRVTISVDTSKNQFFLKLSFVTAADTAVYYCVRMGLGANAFDIWGRGTMVTVSS VL: EIVLTQSPGTLSLSPGERATLSCRASQTVSRSFLAWYQQKPGQAPRLLIYGPSSRATGIPDRFSGSGSGTDFTLTISRLEPEDFAVYYCQQYGNSPWTFGQGTKVEIK	pKd	8.73

query: // Input: H2M12395N (antibody, V domains shown, also called H2aM12395N) VH: QVQLQESGPRLVKPSETLSLTCIVSGGSISNFYWNWIRQSPGKGLEWIGYFFYTGTIDYNPSLKSRVTISLDTSKNQFSLNLRLLTAADAAVYYCARMGLGANAFDIWGHGTMVTVSS VL: EIVLTQSPGTLSLSPGERATLSCRASQHVSSNYLAWYQQKPGQAPRLLIYGGSSRATGIPDRFSGSGSGTDFTLTISRLEPADFAVFYCQQYGNSPWTFGQGTKVEMK . Output its pKd only.
result: 9.12

query: // Input: H2M12450N (antibody, V domains shown, also called H2aM12450N; mAb12450) VH: QVQLQESGPKVVKPSETLSLTCTVSGGSISSYYWNWIRQSPGKGLEWIGYTKRGYTDYNPSLRSRVTISEDTSKNQFSLRISSVTAADTAVYYCAQMGWGSHAFDMWGQGTMVAVSS VL: EIVLTQSPGTLSLSPGERATLSCRASQSVNSRYLAWYQQKPGQAPRLLIYGASSRATGIPDRCSGSGSGTDFTLTISRLEPEDFAVYYCQQYGSSPWTFGQGTKVEIK . Output its pKd only.
result: 9.82

query: // Input: H1M12386N (antibody, V domains shown) VH: QVQLEESGGGVVKAGGSLRLSCVASGFTFSDYYINWIRQAPGKGLEWVSYINNGGYTIYYADSVKGRFTMSRDNAKNSVYLEMNGLRAEDTAFYYCVRDPRSYYGFDYWGQGTLVTVSS VL: DIQMTQSPSSLSASVGDRVTITCRASQSISSYLNWNQQKPGKAPKLLIYVASSLQSGVPSRFSGSGSGTDFTLTISGLQPEDFAPYYCQQSYITPPITFGQGTRLDIK . Output its pKd only.
result: 9.76
